- Assayed System: EGFR on EGFR positive non-small cell lung cancer cells NCI-H1650 (UniProt P00533 25-1210)
- Test Method Notes: cell-based or functional assay
Would you mind telling me the reported H1650 GFP Flourescence EC50 of each entry?
Number in µg/mL, nothing else.

Which H1650 GFP Flourescence EC50 value belongs to AbB-TV (antibody, human IgG1, kappa, V domains shown, synthon TV on reduced interchain cysteines; average DAR 2.3 per ADC) VH: EVQLQESGPGLVKPSQTLSLTCTVSGYSISNDFAWNWIRQPPGKGLEWMGYISYKGNTRYQPSLKSRITISRDTSKNQFFLKLNSVTAADTATYYCVTASRGFPWWGQGTLVTVSS VL: DIQMTQSPSSMSVSVGDRVTITCHSSQDINSNIGWLQQKPGKSFKGLIYHGTNLDDGVPSRFSGSGSGTDYTLTISSLQPEDFATYYCVQYAQFPWTFGGGTKLEIKR ? 0.74

Could you share which H1650 GFP Flourescence EC50 value was measured for AbB-ZZ (antibody, human IgG1, kappa, V domains shown, synthon ZZ on reduced interchain cysteines; average DAR 1.1 per ADC) VH: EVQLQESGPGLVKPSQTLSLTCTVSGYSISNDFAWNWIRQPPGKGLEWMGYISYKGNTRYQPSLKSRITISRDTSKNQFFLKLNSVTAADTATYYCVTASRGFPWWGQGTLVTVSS VL: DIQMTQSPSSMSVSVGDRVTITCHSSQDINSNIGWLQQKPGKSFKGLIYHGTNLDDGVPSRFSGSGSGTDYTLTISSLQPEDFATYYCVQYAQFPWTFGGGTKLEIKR ? 0.61
